Where do these numbers come from? They come from paper PMC7129073.

# Tested on: S. pneumoniae
# experiment: Broth microdilution
# Type: cell-based, Streptococcus pneumoniae
# condition.label: Streptococcus pneumoniae
measurement.name: MIC90 (µg/mL)
Answers are plain numbers, in µg/mL.

test.smiles: CC1(C)S[C@@H]2[C@H](NC(=O)[C@H](N)c3ccccc3)C(=O)N2[C@H]1C(=O)O
MIC90 / µg/mL: 4

Task: Please look up its MIC90: `CC1(C)S[C@@H]2[C@H](NC(=O)Cc3ccccc3)C(=O)N2[C@H]1C(=O)O`
Output: 2

* * *

# Tested on: E. coli
# experiment: SMART 2003 Europe, microdilution
# Format: cell-based, Escherichia coli
# condition.label: 1106 isolates
measurement.name: per cent susceptible (%)
One number for each entry, in %.

molecule: C[C@@H](O)[C@H]1C(=O)N2C(C(=O)O)=C(SCCN=CN)C[C@H]12 [imipenem]
measurement.name: per cent susceptible
measured: 100
--
molecule: NCC[C@H](O)C(=O)N[C@@H]1C[C@H](N)[C@@H](O[C@H]2O[C@H](CN)[C@@H](O)[C@H](O)[C@H]2O)[C@H](O)[C@H]1O[C@H]1O[C@H](CO)[C@@H](O)[C@H](N)[C@H]1O [amikacin]
measurement.name: per cent susceptible
measured: 99

Task: Please look up its per cent susceptible: NC[C@H]1O[C@H](O[C@H]2[C@H](O)[C@@H](O[C@H]3O[C@H](CO)[C@@H](O)[C@H](N)[C@H]3O)[C@H](N)C[C@@H]2N)[C@H](N)C[C@@H]1O [tobramycin]
Output: 92
